# System tested: HIV-1 Env of isolate MGRM-D-019 (subtype D) (HIV-1)
# Test: cell-based or functional assay
Exercise: state measured IC50 (neutralization) for each of the binders provided.

# IC50 (neutralization) lookup, item PGT-125 (antibody, V domains shown) VH: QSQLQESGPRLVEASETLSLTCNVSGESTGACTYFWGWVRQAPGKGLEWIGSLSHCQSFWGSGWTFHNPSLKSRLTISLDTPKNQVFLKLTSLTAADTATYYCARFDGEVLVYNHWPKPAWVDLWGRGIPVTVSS VL: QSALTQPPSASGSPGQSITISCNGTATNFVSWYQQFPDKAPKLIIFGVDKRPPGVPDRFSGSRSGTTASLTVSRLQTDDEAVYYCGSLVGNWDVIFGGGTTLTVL
> 50 µg/mL

Then what about the binder PGT-127 (antibody, V domains shown) VH: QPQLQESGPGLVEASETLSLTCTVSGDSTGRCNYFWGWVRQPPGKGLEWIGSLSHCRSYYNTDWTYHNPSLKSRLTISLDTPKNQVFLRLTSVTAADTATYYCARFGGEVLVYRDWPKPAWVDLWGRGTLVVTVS VL: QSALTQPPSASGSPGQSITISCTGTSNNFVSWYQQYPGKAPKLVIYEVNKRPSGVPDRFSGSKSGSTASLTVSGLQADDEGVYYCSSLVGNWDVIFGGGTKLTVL ?
> 50 µg/mL

Then what about the binder PGT-123 (antibody, V domains shown) VH: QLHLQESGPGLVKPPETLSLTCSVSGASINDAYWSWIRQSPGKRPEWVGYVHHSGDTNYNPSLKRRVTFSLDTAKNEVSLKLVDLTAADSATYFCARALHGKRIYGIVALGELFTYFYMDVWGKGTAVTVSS VL: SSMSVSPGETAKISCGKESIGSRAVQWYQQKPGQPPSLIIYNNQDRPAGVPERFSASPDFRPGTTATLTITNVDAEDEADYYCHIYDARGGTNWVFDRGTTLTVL ?
> 50 µg/mL
